Biological target: T1, human GIP receptor (human, UniProt P48546 22-466)
T1 sequence (looked up): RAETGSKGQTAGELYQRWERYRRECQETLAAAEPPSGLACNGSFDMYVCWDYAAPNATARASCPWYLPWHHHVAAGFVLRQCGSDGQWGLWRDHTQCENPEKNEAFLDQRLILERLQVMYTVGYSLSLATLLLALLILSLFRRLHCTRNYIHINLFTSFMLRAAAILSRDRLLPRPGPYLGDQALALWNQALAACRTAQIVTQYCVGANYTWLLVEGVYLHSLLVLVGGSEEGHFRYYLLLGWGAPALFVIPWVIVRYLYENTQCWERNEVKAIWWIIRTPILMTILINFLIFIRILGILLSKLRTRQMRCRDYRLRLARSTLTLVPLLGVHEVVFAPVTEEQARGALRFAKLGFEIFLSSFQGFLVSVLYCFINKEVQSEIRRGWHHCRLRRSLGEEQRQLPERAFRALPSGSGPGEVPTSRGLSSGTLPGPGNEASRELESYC
Assay: cell-based or functional assay
*1 amine or outer side, *2 acyl side, *3 side chain or, on linkers, in order; H or OH if unused. Where no end group is shown, it is not given here. Side-chain parts run from the residue outwards. [ ]: non-standard residue; d: D form. The star is where a group is joined. Decanoyl(10-(4-HOOC-PhO)) = O=C(O)c1ccc(OCCCCCCCCCC(=O)*)cc1; αMePhe(2-F) = C[C@](N)(Cc1ccccc1F)C(=O)O; γGlu = O=C(O)[C@H](CCC(=O)[*:2])N[*:1]; αMeY = C[C@](N)(Cc1ccc(O)cc1)C(=O)O; αMeL = CC(C)C[C@](C)(N)C(=O)O; Nle = CCCC[C@H](N)C(=O)O; Orn = NCCC[C@H](N)C(=O)O; AEEA = NCCOCCOCC(=O)O; Aib = CC(C)(N)C(=O)O
Observed property: cAMP EC50 (1.0% HSA)
Please answer using a numeric value trailed by its unit.

The reported value for YXEGTXTSDXSIXLDXKAQXKFIXXLIEGGPSSGAPPPS (Y-Aib-EGT-αMeF(2F)-TSD-OMeY-SI-αMeL-LD-Orn-K((2-[2-(2-Amino-ethoxy)-ethoxy]-acetyl)2-(γ-Glu)-CO-(CH2)10-CH3)AQ-Aib-K((2-[2-(2-Amino-ethoxy)-ethoxy]-acetyl)2-(γ-Glu)-CO-(CH2)10-CH3)FI-(D-Glu)-αMeY-LIEGGPSSGAPPPS-NH2) [Example 289] in terms of cAMP EC50 (1.0% HSA) is 3.11 nM

The reported value for YXEGTXTSDXSIXLDXKAQXEFIXXLIEGGPSSGAPPPSK (Y-Aib-EGT-αMeF(2F)-TSD-2Nal-SI-αMeL-LD-Orn-K((2-[2-(2-Amino-ethoxy)-ethoxy]-acetyl)2-(γ-Glu)-CO-(CH2)12-CO2H)AQ-Aib-EFI-(D-Glu)-αMeY-LIEGGPSSGAPPPSK((2-[2-(2-Amino-ethoxy)-ethoxyl-acetyl)2-(γ-Glu)-CO-(CH2)12-CO2H)-NH2) [Example 251] in terms of cAMP EC50 (1.0% HSA) is 14.3 nM

The reported value for YXEGTXTSDXSIXLDXKAQXEFIXXLIKGGPSSGAPPPS (Y-Aib-EGT-αMeF(2F)-TSD-OMeY-SI-αMeL-LD-Orn-K((2-[2-(2-Amino-ethoxy)-ethoxy]-acetyl)2-(γ-Glu)-CO-(CH2)12-CO2H)AQ-Aib-EFI-(D-Glu)-αMeY-LIK((2-[2-(2-Amino-ethoxy)-ethoxy]-acetyl)2-(γ-Glu)-CO-(CH2)12-CO2H)GGPSSGAPPPS-NH2) [Example 260] in terms of cAMP EC50 (1.0% HSA) is 3.27 nM

The reported value for YXEGTXTSDXSIXLDXIAQXEFIKXLIKGGPSSGAPPPS (Y-Aib-EGT-αMeF(2F)-TSD-2Nal-SI-αMeL-LD-Orn-IAQ-Aib-EFIK((2-[2-(2-Amino-ethoxy)-ethoxy]-acetyl)2-(γ-Glu)-(10-(4-carboxyphenoxy)decanoyl))-αMeY-LIK((2-[2-(2-Amino-ethoxy)-ethoxy]-acetyl)2-(γ-Glu)-(10-(4-carboxyphenoxy)decanoyl))GGPSSGAPPPS-NH2) [Example 283] in terms of cAMP EC50 (1.0% HSA) is 4.88 nM

The reported value for YXEGTXTSDXSIXLDXIAQXKFIXXLIKGGPSSGAPPPS (Y-Aib-EGT-αMeF(2F)-TSD-4Pa1-SI-αMeL-LD-Orn-IAQ-Aib-K((2-[2-(2-Amino-ethoxy)-ethoxy]-acetyl)2-(γ-Glu)-(10-(4-carboxyphenoxy)decanoyl))FI-(D-Glu)-αMeY-LIK((2-[2-(2-Amino-ethoxy)-ethoxy]-acetyl)2-(γ-Glu)-(10-(4-carboxyphenoxy)decanoyl))GGPSSGAPPPS-NH2) [Example 275] in terms of cAMP EC50 (1.0% HSA) is 0.926 nM

The reported value for YXEGTXTSDYXIXLDXKAQXEFIXXLIEGGPSSGAPPPSK (Y-Aib-EGT-αMeF(2F)-TSDY-Aib-I-αMeL-LD-Orn-K((2-[2-(2-Amino-ethoxy)-ethoxy]-acetyl)2-(γ-Glu)-CO-(CH2)10-CH3)AQ-Aib-EFI-(D-Glu)-αMeY-LIEGGPSSGAPPPSK((2-[2-(2-Amino-ethoxy)-ethoxy]-acetyl)2-(γ-Glu)-CO-(CH2)10-CH3)-NH2) [Example 302] in terms of cAMP EC50 (1.0% HSA) is 0.453 nM

The reported value for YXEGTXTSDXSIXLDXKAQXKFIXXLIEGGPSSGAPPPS (Y-Aib-EGT-αMeF(2F)-TSD-Nle-SI-αMeL-LD-Orn-K((2-[2-(2-Amino-ethoxy)-ethoxy]-acetyl)2-CO-(CH2)12-CO2H)AQ-Aib-K((2-[2-(2-Amino-ethoxy)-ethoxy]-acetyl)2-CO-(CH2)12-CO2H)FI-(D-Glu)-αMeY-LIEGGPSSGAPPPS-NH2) [Example 271] in terms of cAMP EC50 (1.0% HSA) is 0.767 nM

The reported value for YXEGTXTSDXSIXLDXIAQXKFIXXLIEGGPSSGAPPPSK (Y-Aib-EGT-αMeF(2F)-TSD-OMeY-SI-αMeL-LD-Orn-IAQ-Aib-K((2-[2-(2-Amino-ethoxy)-ethoxy]-acetyl)2-(γ-Glu)-CO-(CH2)12-CO2H)FI-(D-Glu)-αMeY-LIEGGPSSGAPPPSK((2-[2-(2-Amino-ethoxy)-ethoxyl-acetyl)2-(γ-Glu)-CO-(CH2)12-CO2H)-NH2) [Example 264] in terms of cAMP EC50 (1.0% HSA) is 7.12 nM

The reported value for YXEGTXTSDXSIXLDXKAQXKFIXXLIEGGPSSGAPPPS (Y-Aib-EGT-αMeF(2F)-TSD-2Nal-SI-αMeL-LD-Orn-K((2-[2-(2-Amino-ethoxy)-ethoxy]-acetyl)2-(γ-Glu)-(10-(4-carboxyphenoxy)decanoyl))AQ-Aib-K((2-[2-(2-Amino-ethoxy)-ethoxy]-acetyl)2-(γ-Glu)-(10-(4-carboxyphenoxy)decanoyl))FI-(D-Glu)-αMeY-LIEGGPSSGAPPPS-NH2) [Example 281] in terms of cAMP EC50 (1.0% HSA) is 1.87 nM

The reported value for Y[Aib]EGT[αMePhe(2-F)]TSD[Nle]SI[αMeL]LD[Orn]IAQ[Aib]EFIK([AEEA-AEEA-γGlu-Decanoyl(10-(4-HOOC-PhO))])[αMeY]LIK([AEEA-AEEA-γGlu-Decanoyl(10-(4-HOOC-PhO))])GGPSSGAPPPS-NH2 [Example 314] in terms of cAMP EC50 (1.0% HSA) is 3.51 nM

The reported value for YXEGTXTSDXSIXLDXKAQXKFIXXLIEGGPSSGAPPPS (Y-Aib-EGT-αMeF(2F)-TSD-hTyr-SI-αMeL-LD-Orn-K((2-[2-(2-Amino-ethoxy)-ethoxy]-acetyl)2-CO-(CH2)12-CO2H)AQ-Aib-K((2-[2-(2-Amino-ethoxy)-ethoxy]-acetyl)2-CO-(CH2)12-CO2H)FI-(D-Glu)-αMeY-LIEGGPSSGAPPPS-NH2 …) [Example 272] in terms of cAMP EC50 (1.0% HSA) is 0.561 nM

The reported value for YXEGTXTSDYXIXLDXKAQXKFIXXLIEGGPSSGAPPPS (Y-Aib-EGT-αMeF(2F)-TSDY-Aib-I-αMeL-LD-Orn-K((2-[2-(2-Amino-ethoxy)-ethoxy]-acetyl)2-(γ-Glu)-(10-(4-carboxyphenoxy)decanoyl))AQ-Aib-K((2-[2-(2-Amino-ethoxy)-ethoxy]-acetyl)2-(γ-Glu)-(10-(4-carboxyphenoxy)decanoyl))FI-(D-Glu)-αMeY-LIEGGPSSGAPPPS-NH2) [Example 236] in terms of cAMP EC50 (1.0% HSA) is 0.641 nM
